test system: Enterococcus faecalis; test: Compound was tested for inhibition of the […] organism Streptococcus faecalis MGH-2; type: functional
Friendly reminder: MIC below 0.8 µg/mL is Met, at or above is Not met.

{"compound": "CCn1cc(C(=O)O)c(=O)c2cc(F)c(N3CCNCC3)nc21", "group": "Not met"}
{"compound": "CCn1cc(C(=O)O)c(=O)c2cc(F)c(N3CCC(CNC)C3)c(F)c21 (stereo not drawn)", "group": "Met"}
{"compound": "CNn1cc(C(=O)O)c(=O)c2cc(F)c(N3CCN(C)CC3)cc21", "group": "Not met"}
{"compound": "CCNCC1CCN(c2c(F)cc3c(=O)c(C(=O)O)cn(CC)c3c2F)C1 (stereo not drawn)", "group": "Met"}
{"compound": "CCn1cc(C(=O)O)c(=O)c2cc(F)c(N3CCC(CN)C3)c(F)c21 (stereo not drawn)", "group": "Met"}
{"compound": "CCn1cc(C(=O)O)c(=O)c2ccc(C)nc21", "group": "Not met"}
{"compound": "CCn1cc(C(=O)O)c(=O)c2cc3c(cc21)OCO3", "group": "Not met"}
{"compound": "CCn1cc(C(=O)O)c(=O)c2cc(F)c(N3CCC(CNC)C3)cc21 (stereo not drawn)", "group": "Not met"}
{"compound": "CCNCC1CCN(c2cc3c(cc2F)c(=O)c(C(=O)O)cn3CC)C1 (stereo not drawn)", "group": "Met"}

* * *

Recorded MIC by entry
test system: Escherichia coli; test: Compound was tested for inhibition of the gram-negative organism Escherichia coli vogel; type: functional

{"molecule": "CCn1cc(C(=O)O)c(=O)c2cc(F)c(N3CCC(CN)C3)cc21 (configuration not stated)", "MIC / µg/mL": 0.8}
{"molecule": "CCn1cc(C(=O)O)c(=O)c2cc(F)c(N3CCN(C)CC3)cc21", "MIC / µg/mL": 0.025}
{"molecule": "CC1COc2c(N3CCN(C)CC3)c(F)cc3c(=O)c(C(=O)O)cn1c23 (configuration not stated)", "MIC / µg/mL": 0.1}
{"molecule": "CCn1cc(C(=O)O)c(=O)c2cc(F)c(N3CCC(CNC)C3)c(F)c21 (configuration not stated)", "MIC / µg/mL": 0.4}
{"molecule": "CCn1cc(C(=O)O)c(=O)c2cc(F)c(N3CCC(CNC)C3)cc21 (configuration not stated)", "MIC / µg/mL": 0.2}
{"molecule": "CCn1cc(C(=O)O)c(=O)c2cc(F)c(N3CCC(CN)C3)c(F)c21 (configuration not stated)", "MIC / µg/mL": 0.1}
{"molecule": "CCNCC1CCN(c2c(F)cc3c(=O)c(C(=O)O)cn(CC)c3c2F)C1 (configuration not stated)", "MIC / µg/mL": 0.1}

* * *

tested on: Mus musculus; assay: Compound was evaluated for protective dose against the Streptococcus pneumoniae SV-1 lethal infection following po administration; format: functional; conditions: read-out: PD50
Recorded ED50 by entry
measured-quantity: ED50 (mg/kg)

{"molecule": "CCn1cc(C(=O)O)c(=O)c2cc(F)c(N3CCNCC3)cc21", "subject-of-test": "Mus musculus", "measured-quantity": "ED50", "unit-of-measurement": "mg/kg", "limit-operator": "=", "measured-result": 150}
{"molecule": "CCn1cc(C(=O)O)c(=O)c2cc(F)c(N3CCNCC3)nc21", "subject-of-test": "Mus musculus", "measured-quantity": "ED50", "unit-of-measurement": "mg/kg", "limit-operator": ">", "measured-result": 200}
{"molecule": "CCn1cc(C(=O)O)c(=O)c2ccc(C)nc21", "subject-of-test": "Mus musculus", "measured-quantity": "ED50", "unit-of-measurement": "mg/kg", "limit-operator": ">", "measured-result": 100}
{"molecule": "CCn1cc(C(=O)O)c(=O)c2cc(F)c(N3CCC(CNC)C3)c(F)c21 (stereo unspecified)", "subject-of-test": "Mus musculus", "measured-quantity": "ED50", "unit-of-measurement": "mg/kg", "limit-operator": "=", "measured-result": 37}
{"molecule": "CCn1cc(C(=O)O)c(=O)c2cc(F)c(N3CCC(CN)C3)c(F)c21 (stereo unspecified)", "subject-of-test": "Mus musculus", "measured-quantity": "ED50", "unit-of-measurement": "mg/kg", "limit-operator": "=", "measured-result": 100}
{"molecule": "CCn1cc(C(=O)O)c(=O)c2cc(F)c(N3CCC(CNC)C3)cc21 (stereo unspecified)", "subject-of-test": "Mus musculus", "measured-quantity": "ED50", "unit-of-measurement": "mg/kg", "limit-operator": ">", "measured-result": 100}
{"molecule": "CCn1cc(C(=O)O)c(=O)c2cc(F)c(N3CCN(C)CC3)cc21", "subject-of-test": "Mus musculus", "measured-quantity": "ED50", "unit-of-measurement": "mg/kg", "limit-operator": "=", "measured-result": 200}
{"molecule": "CNn1cc(C(=O)O)c(=O)c2cc(F)c(N3CCN(C)CC3)cc21", "subject-of-test": "Mus musculus", "measured-quantity": "ED50", "unit-of-measurement": "mg/kg", "limit-operator": ">", "measured-result": 100}
{"molecule": "CCNCC1CCN(c2c(F)cc3c(=O)c(C(=O)O)cn(CC)c3c2F)C1 (stereo unspecified)", "subject-of-test": "Mus musculus", "measured-quantity": "ED50", "unit-of-measurement": "mg/kg", "limit-operator": "=", "measured-result": 20}
{"molecule": "CC1COc2c(N3CCN(C)CC3)c(F)cc3c(=O)c(C(=O)O)cn1c23 (stereo unspecified)", "subject-of-test": "Mus musculus", "measured-quantity": "ED50", "unit-of-measurement": "mg/kg", "limit-operator": "=", "measured-result": 68}
{"molecule": "O=C(O)c1cn(C2CC2)c2cc(N3CCNCC3)c(F)cc2c1=O", "subject-of-test": "Mus musculus", "measured-quantity": "ED50", "unit-of-measurement": "mg/kg", "limit-operator": ">", "measured-result": 100}

* * *

tested on: Pseudomonas aeruginosa; assay: Compound was tested for inhibition of the gram-negative organism Pseudomonas aeruginosa UI-18; format: functional
measured-quantity: MIC (µg/mL)

{"compound": "CCn1cc(C(=O)O)c(=O)c2cc3c(cc21)OCO3", "unit-of-measurement": "µg/mL", "limit-operator": "=", "measured-result": 6.3}
{"compound": "CCNCC1CCN(c2c(F)cc3c(=O)c(C(=O)O)cn(CC)c3c2F)C1 (stereo not drawn)", "unit-of-measurement": "µg/mL", "limit-operator": "=", "measured-result": 1.6}
{"compound": "CCn1cc(C(=O)O)c(=O)c2cc(F)c(N3CCC(CNC)C3)cc21 (stereo not drawn)", "unit-of-measurement": "µg/mL", "limit-operator": "=", "measured-result": 1.6}
{"compound": "CCn1cc(C(=O)O)c(=O)c2cc(F)c(N3CCNCC3)nc21", "unit-of-measurement": "µg/mL", "limit-operator": "=", "measured-result": 1.6}
{"compound": "CNn1cc(C(=O)O)c(=O)c2cc(F)c(N3CCN(C)CC3)cc21", "unit-of-measurement": "µg/mL", "limit-operator": "=", "measured-result": 0.8}
{"compound": "CCn1cc(C(=O)O)c(=O)c2cc(F)c(N3CCC(CN)C3)c(F)c21 (stereo not drawn)", "unit-of-measurement": "µg/mL", "limit-operator": "=", "measured-result": 0.8}
{"compound": "CCn1cc(C(=O)O)c(=O)c2cc(F)c(N3CCC(CN)C3)cc21 (stereo not drawn)", "unit-of-measurement": "µg/mL", "limit-operator": "=", "measured-result": 1.6}
{"compound": "CCn1cc(C(=O)O)c(=O)c2ccc(C)nc21", "unit-of-measurement": "µg/mL", "limit-operator": ">", "measured-result": 100}
{"compound": "CCn1cc(C(=O)O)c(=O)c2cc(F)c(N3CCN(C)CC3)cc21", "unit-of-measurement": "µg/mL", "limit-operator": "=", "measured-result": 0.4}
{"compound": "CC1COc2c(N3CCN(C)CC3)c(F)cc3c(=O)c(C(=O)O)cn1c23 (stereo not drawn)", "unit-of-measurement": "µg/mL", "limit-operator": "=", "measured-result": 0.4}
{"compound": "CCn1cc(C(=O)O)c(=O)c2cc(F)c(N3CCC(CNC)C3)c(F)c21 (stereo not drawn)", "unit-of-measurement": "µg/mL", "limit-operator": "=", "measured-result": 1.6}
{"compound": "O=C(O)c1cn(C2CC2)c2cc(N3CCNCC3)c(F)cc2c1=O", "unit-of-measurement": "µg/mL", "limit-operator": "=", "measured-result": 0.4}
{"compound": "CCNCC1CCN(c2cc3c(cc2F)c(=O)c(C(=O)O)cn3CC)C1 (stereo not drawn)", "unit-of-measurement": "µg/mL", "limit-operator": "=", "measured-result": 1.6}

Numbers sourced from ChEMBL document CHEMBL1123422.
